Measured TGI accompanies every entry in the list below.
Test system: NCI-H23 lung
assayComment: NCI tumour cell line growth inhibition, 48 h
Field: numeric (µM). Do not append units.

COC(=O)Cc1c2n(c3ccccc13)C(=O)N1c3ccccc3C(CC(=O)OC)C21 (stereo not given)	64.6

Shifting focus to the compound that follows.
# return recorded TGI for entry Nc1ccc2c(SCC(=O)Nc3ccccc3-c3ccccc3NC(=O)CSc3c4ccccc4nc4cc(N)ccc34)c3ccccc3nc2c1
39.5

* * *

Test system: SF-539 CNS
assayComment: NCI tumour cell line growth inhibition, 48 h
parameterMeasured: GI50

Below are worked cases with known answers.
O=C(CCl)Nc1ccc(C(=O)N/N=C/c2ccc(Cl)cc2)cc1	1.75 µM
COc1cc(-c2nn3c(=O)n(-c4ccc(Cl)cc4)c(=O)nc3s2)cc(OC)c1OC	32.9 µM
CC(=O)Nc1ccc2c(c1)CN1C(=O)c3ccccc3C1=N2	> 100 µM
Cc1nc2cc(Nc3nc(Nc4ccc(F)cc4)nc(-c4ccc(Cl)cc4)n3)ccc2n1Cc1ccccc1	11.3 µM

Check SF-539 CNS data and give GI50 for C/C(=N\O)[C@H]1CC[C@@]2(C)[C@@H]3CC[C@H]4C(C)(C)/C(=N/O)CC[C@@]45CC35CC[C@]12C (stereo not given in full) .
3.14 µM

* * *

Measured TGI accompanies every entry in the list below.
System: HL-60(TB) leukemia
assayComment: NCI tumour cell line growth inhibition, 48 h

Below are worked cases with known answers.
CC(=O)N=S(NC(=O)c1ccc(C)cc1)C(Cl)(Cl)Cl (stereo not given)	26.9 µM
O=C(/C=C/CC(O)(c1ccccc1)c1ccccc1)Nc1ccccc1Cl	> 100 µM
O=C1CCCC2=C1CC1=C(CCCC1=O)N2c1ccc(-c2ccccc2)cc1	> 100 µM
CC(=O)Nc1ccc2c(c1)CN1C(=O)c3ccccc3C1=N2	> 100 µM
CN1CCN(CCCOc2ccc3ncnc(Nc4ccc(Oc5cccc(F)c5)c(Cl)c4)c3c2)CC1	4.17 µM
Cc1cc(Nc2cc(N3CCN(C)CC3)nc(C#Cc3ccccc3)n2)n[nH]1	14.8 µM

Check HL-60(TB) leukemia data and give TGI for O=C1c2cccnc2C(=O)c2c1nc1ccccc1c2-c1ccc2c3c(nc4ccccc42)C(=O)c2cccnc2-c13 .
5.42 µM

Check HL-60(TB) leukemia data and give TGI for O=C1C=CC(=O)c2c(O)c(N3CCN(c4ncccn4)CC3)c(Cl)c(O)c21 .
0.766 µM

Check HL-60(TB) leukemia data and give TGI for COc1ccccc1-c1nccc(COc2ccccc2C[C@@H](Oc2ncnc3sc(-c4ccc(F)cc4)c(-c4ccc(OCCN5CCN(C)CC5)c(Cl)c4C)c23)C(=O)O)n1 .
0.0524 µM

Check HL-60(TB) leukemia data and give TGI for Cc1ccc(-c2cc(C(Cl)Cl)on2)cc1 .
> 100 µM

* * *

Test system: SF-539 CNS
assayComment: NCI tumour cell line growth inhibition, 48 h; in the data active = GI50 below about 0.43 µM; inactive = the rest
Allowed answers: TRUE (active), FALSE (inactive)

Some entries whose results are on file:
O=c1ncccn1C1OC(CO)C(O)C1F (centres undefined)	FALSE
COc1ccc(-c2nn(-c3cccc(Cl)c3)cc2/C=C2\C(=N)N(c3ccccc3)N=C2N)cc1	FALSE
O=C(Nc1nc2ccc(F)cc2s1)c1cccnc1Nc1ccc(Cl)cc1Cl	FALSE

Check the results log: what was the call for Cc1cc2c(-c3nc4ccccn4c3NC34CC5CC(CC(C5)C3)C4)c(O)c(O)cc2c(O)c1-c1c(C)cc2c(-c3nc4ccccn4c3NC34CC5CC(CC(C5)C3)C4)c(O)c(O)cc2c1O ?
FALSE

Check the results log: what was the call for CCOc1cccc(/C=N/NC(=O)Cc2ccc(Nc3ccnc(C(F)(F)F)c3)cc2)c1O ?
FALSE

Check the results log: what was the call for CCn1c(-c2nonc2N)nc2c(C#CC(C)(C)O)ncc(OC[C@@H]3CCCN3)c21 ?
FALSE

Check the results log: what was the call for Cc1cc([C@H](C)Nc2nccc(N3C(=O)OC[C@@H]3[C@H](C)F)n2)ncc1-c1ccnc(C(F)(F)F)c1 ?
FALSE

Check the results log: what was the call for NCCn1c2c(c3ccccc3c1=O)C(=O)c1ccccc1-2 ?
TRUE

Check the results log: what was the call for CC(=O)c1c(Nc2ccc(F)c(F)c2F)[nH]c2c(F)cc(F)cc2c1=O ?
TRUE

* * *

Test system: SF-295 CNS
assayComment: NCI tumour cell line growth inhibition, 48 h; in the data active = GI50 below about 0.43 µM; inactive = the rest
Allowed answers: T (active), F (inactive)

COc1cc2c(c(OC)c1OC)-c1ccc(SC)c(=O)cc1[C@@H](NC(=O)c1ccc(F)cc1)CC2	T
Cc1cc(Nc2cc(N3CCN(C)CC3)nc(C#Cc3ccccc3)n2)n[nH]1	F
COc1ccc(CNC(=O)c2ccc(-c3cc(-c4nnc(C)o4)ccc3C)cc2)cc1	F

Now consider the entry below.
Check the results log: what was the call for CC[C@H](C)[C@H](NC(=O)N[C@@H](C)c1ccccc1)C(=O)N(C)[C@H](C[C@@H](OC(C)=O)c1nc(C(=O)N[C@@H](Cc2ccccc2)C[C@H](C)C(=O)OC)cs1)C(C)C ?
F

* * *

Measured log10 TGI accompanies every entry in the list below.
Test system: HOP-92 NSCLC
assayComment: NCI tumour cell line growth inhibition, 48 h
Response schema: value (number) is log10 of TGI in units of µM.

CCOc1cccc(/C=N/NC(=O)Cc2ccc(Nc3ccnc(C(F)(F)F)c3)cc2)c1O	1.00
Fc1ccc(OCc2ccc3nc(-c4ccccc4)c(Cl)nc3c2)cc1	1.70

# return recorded log10 TGI for entry NC(=O)c1c(NC(=O)c2cccc(C(F)(F)F)c2)sc2c1CCC(=O)C2
0.54

# return recorded log10 TGI for entry Cc1cc(C(=O)Nc2cc(Nc3ncccc3-c3ncnc4nc[nH]c34)ccc2F)cc(C(C)(C)C#N)c1
0.16

# return recorded log10 TGI for entry CCCCCCCCCCCCCCCCCCNC(=O)[C@H]1CSC(c2ccc(F)c(OC)c2)N1 (stereo not given in full)
0.66

* * *

Tested on: LOX IMVI melanoma
assayComment: NCI tumour cell line growth inhibition, 48 h
parameterMeasured: GI50

Below are worked cases with known answers.
CN1CCN(CCCOc2ccc3ncnc(Nc4ccc(Oc5cccc(F)c5)c(Cl)c4)c3c2)CC1	1.7 µM
COc1ccc(-c2nn3ncccc3c2-c2ccnc(Nc3cccc(C(F)(F)F)c3)n2)cc1	6.53 µM
CC[C@H](C)[C@H](NC(=O)N[C@@H](C)c1ccccc1)C(=O)N(C)[C@H](C[C@@H](OC(C)=O)c1nc(C(=O)N[C@@H](Cc2ccccc2)C[C@H](C)C(=O)OC)cs1)C(C)C	30.9 µM
CCOC(=O)C(=Cc1c(-c2ccccc2)[nH]c2ccccc12)C(=O)OCC	5.58 µM
Cc1ccc2c(C(C[N+](=O)[O-])c3ccco3)c(-c3ccccc3)[nH]c2c1 (stereo unspecified)	44.2 µM

Shifting focus to the compound that follows.
# return recorded GI50 for entry COc1ccc(C2NC(=S)NC3=C2COc2ccc(F)cc23)cc1OC (stereo unspecified)
13.5 µM

* * *

Tested on: OVCAR-5 ovarian
assayComment: NCI tumour cell line growth inhibition, 48 h
Measured TGI accompanies every entry in the list below.

CCc1nc2c([nH]1)C(=O)c1ccccc1C2=O	> 100 µM
CC(C)(C)C#CI1OC(=O)c2ccccc21	21.9 µM
CC(=O)Nc1ccc2c(c1)nc1c3ccccc3ccn21	> 100 µM
CC(=O)Nc1ccc2c(c1)CN1C(=O)c3ccccc3C1=N2	> 100 µM
CCOP(=O)(COCCn1nc(Br)c(=O)[nH]c1=O)OCC	> 100 µM

Check OVCAR-5 ovarian data and give TGI for Fc1ccc(-c2cc(-c3cn[nH]c3-c3ccccn3)ccn2)cc1 .
> 25 µM

Check OVCAR-5 ovarian data and give TGI for CCOC(=O)OC1(c2ccccc2)CCN(C)CC1 .
> 100 µM

Check OVCAR-5 ovarian data and give TGI for O=C1CN(c2ccccc2)C(=O)C1C(=O)Nc1ccc(Cl)c(Cl)c1 (stereo unspecified) .
50.6 µM

Check OVCAR-5 ovarian data and give TGI for COC(=O)C1=C(C(=O)OC)N(C(C)C)[C@H]2C(C(=O)OC)=C(C(=O)OC)N(C(C)C)[C@@H]12 .
> 100 µM

Check OVCAR-5 ovarian data and give TGI for Cc1ccc(N2C(=O)/C(=C3\Sc4c(nc(C)n(C)c4=O)N3c3ccccc3)SC2=S)cc1 .
> 100 µM

Check OVCAR-5 ovarian data and give TGI for C#CCn1cc(C=C2C(=O)NC(=S)NC2=O)c2cc(Cl)ccc21 .
4.12 µM

Check OVCAR-5 ovarian data and give TGI for O=C1OC(c2ccc(Cl)c3ccccc23)c2ccccc21 (stereo unspecified) .
> 100 µM

* * *

System: NCI-H23 lung
assayComment: NCI tumour cell line growth inhibition, 48 h; in the data active = GI50 below about 0.43 µM; inactive = the rest
Allowed answers: 1.0 = active, 0.0 = inactive

Some entries whose results are on file:
Cc1cc(C(=O)Nc2cc(Nc3ncccc3-c3ncnc4nc[nH]c34)ccc2F)cc(C(C)(C)C#N)c1	1.0
O=C(Nc1cccc(Cl)c1)c1cc(Cl)ccc1O	0.0
COc1ccc(CNC(=O)c2ccc(-c3cc(-c4nnc(C)o4)ccc3C)cc2)cc1	0.0
Cc1ccc(-c2cc(C(Cl)Cl)on2)cc1	0.0

Now consider the entry below.
Check the results log: what was the call for NC1(C(=O)O)CSSC1 ?
0.0
